Molecular target: Trypanothione reductase (Leishmania infantum)
Sequence (A4HSF7 whole entry): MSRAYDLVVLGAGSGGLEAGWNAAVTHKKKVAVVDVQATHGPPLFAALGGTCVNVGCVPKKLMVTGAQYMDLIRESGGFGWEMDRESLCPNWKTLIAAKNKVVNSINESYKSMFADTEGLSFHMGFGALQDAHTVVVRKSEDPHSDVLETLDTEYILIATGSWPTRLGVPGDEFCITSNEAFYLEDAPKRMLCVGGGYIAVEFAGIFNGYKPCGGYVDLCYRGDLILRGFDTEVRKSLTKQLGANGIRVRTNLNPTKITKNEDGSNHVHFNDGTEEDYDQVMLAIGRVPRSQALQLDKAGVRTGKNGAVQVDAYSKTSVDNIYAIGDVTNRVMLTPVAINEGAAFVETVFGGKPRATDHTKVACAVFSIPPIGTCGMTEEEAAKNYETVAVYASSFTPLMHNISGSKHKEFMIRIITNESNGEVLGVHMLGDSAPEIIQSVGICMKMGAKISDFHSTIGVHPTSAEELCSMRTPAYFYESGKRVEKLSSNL
Test: Inhibition of dimerization of HIS/FLAG tagged Leishmania infantum trypanothione reductase incubated for 16 hrs in presence of dimerization buffer by ELISA
pIC50: −log10 of the molar value.
// reported pIC50 for each item listed
observationType: pIC50

[[record]]
testsmiles = "CC[C@H](C)[C@H](NC(=O)CNC(=O)[C@@H](NC(=O)C[C@H](CO)NC(=O)[C@H](CCC(N)=O)NC(=O)[C@@H](NC(=O)C[C@@H](NC(=O)[C@H](CCCCN)NC(=O)[C@@H]1CCCN1C(C)=O)[C@@H](C)CC)[C@@H](C)CC)C(C)C)C(N)=O"
tgt = "Trypanothione reductase (Leishmania infantum)"
obsvalue = 4.65

[[record]]
testsmiles = "CCCC[C@H](NC(=O)[C@H](CO)NC(=O)[C@@H](NC(=O)C[C@H](C)NC(=O)[C@@H](NC(=O)[C@H](CO)NC(=O)[C@H](CCC(N)=O)NC(=O)C[C@@H](NC(=O)[C@@H](NC(=O)[C@H](CCCCN)NC(=O)[C@@H]1CCCN1C(C)=O)[C@@H](C)CC)[C@@H](C)CC)C(C)C)[C@@H](C)CC)C(N)=O"
tgt = "Trypanothione reductase (Leishmania infantum)"
obsvalue = 4.33

[[record]]
testsmiles = "CCCC[C@H](NC(=O)[C@H](CCCCN)NC(=O)[C@H](CCCC)NC(=O)[C@H](CO)NC(=O)[C@@H](NC(=O)CNC(=O)C[C@H](NC(=O)[C@H](CO)NC(=O)[C@H](CCC(N)=O)NC(=O)[C@@H](NC(=O)C[C@H](NC(=O)[C@H](CCCCN)NC(=O)[C@@H]1CCCN1C(C)=O)[C@@H](C)CC)[C@@H](C)CC)C(C)C)[C@@H](C)CC)C(N)=O"
tgt = "Trypanothione reductase (Leishmania infantum)"
obsvalue = 4.86

[[record]]
testsmiles = "CCCC[C@H](NC(=O)[C@H](CO)NC(=O)[C@@H](NC(=O)CNC(=O)[C@@H](NC(=O)[C@H](CO)NC(=O)[C@H](CCC(N)=O)NC(=O)[C@@H](NC(=O)[C@@H](NC(=O)[C@H](CCCCN)NC(=O)[C@@H]1CCCN1C(C)=O)[C@@H](C)CC)[C@@H](C)CC)C(C)C)[C@@H](C)CC)C(N)=O"
tgt = "Trypanothione reductase (Leishmania infantum)"
obsvalue = 5.38

[[record]]
testsmiles = "CCCC[C@@H](CC(N)=O)NC(=O)[C@H](CCCCN)NC(=O)[C@H](CCCC)NC(=O)C[C@H](CO)NC(=O)C[C@H](NC(=O)CNC(=O)[C@@H](NC(=O)C[C@H](CO)NC(=O)[C@H](CCC(N)=O)NC(=O)[C@@H](NC(=O)[C@@H](NC(=O)C[C@H](CCCCN)NC(=O)C[C@@H]1CCCN1C(C)=O)[C@@H](C)CC)[C@@H](C)CC)C(C)C)[C@@H](C)CC"
tgt = "Trypanothione reductase (Leishmania infantum)"
obsvalue = 4.74

[[record]]
testsmiles = "CCCC[C@H](NC(=O)C[C@H](CCCCN)NC(=O)[C@H](CCCC)NC(=O)[C@H](CO)NC(=O)[C@@H](NC(=O)C[C@H](C)NC(=O)[C@@H](NC(=O)[C@H](CO)NC(=O)[C@H](CCC(N)=O)NC(=O)C[C@@H](NC(=O)[C@@H](NC(=O)[C@H](CCCCN)NC(=O)[C@@H]1CCCN1C(C)=O)[C@@H](C)CC)[C@@H](C)CC)C(C)C)[C@@H](C)CC)C(N)=O"
tgt = "Trypanothione reductase (Leishmania infantum)"
obsvalue = 4.86

